- TGT: human orexin receptor 1 (Homo sapiens (Human), UniProt O43613)
- Sequence (O43613 whole entry): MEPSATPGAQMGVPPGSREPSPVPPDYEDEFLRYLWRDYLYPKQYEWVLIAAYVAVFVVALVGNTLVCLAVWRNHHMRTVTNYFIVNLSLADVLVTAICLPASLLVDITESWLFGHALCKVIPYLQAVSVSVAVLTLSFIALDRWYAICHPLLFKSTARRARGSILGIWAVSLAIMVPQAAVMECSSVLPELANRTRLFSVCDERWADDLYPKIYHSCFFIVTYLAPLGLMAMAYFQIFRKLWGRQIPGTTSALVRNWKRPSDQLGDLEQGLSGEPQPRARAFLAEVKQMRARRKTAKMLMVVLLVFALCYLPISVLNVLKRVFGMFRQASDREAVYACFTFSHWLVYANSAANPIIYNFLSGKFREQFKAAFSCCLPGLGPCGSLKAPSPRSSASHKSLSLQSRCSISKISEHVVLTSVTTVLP
- PROTOCOL_SUMMARY: Orexin antagonist activity, intracellular calcium FLIPR assay (orexin receptor 1)
- RUN_CONDITIONS: RBL-2H3 cells stably expressing human orexin receptor 1; orexin-A at approx. 80% maximal response; 15 min preincubation; read-out: Human Orexin1R IC50
pIC50: −log10 of the molar value.
Recorded measurements of pIC50, one per entry

SMILES_INPUT: O=C(N[C@H]1CCC[C@@H]1Nc1nc2ccc(F)cc2s1)c1ncccc1OC(F)F
pIC50: 7.00
//
SMILES_INPUT: O=C(N[C@H]1CCC[C@@H]1Nc1nc2ccc(F)cc2s1)c1ncccc1-n1nccn1
pIC50: 8.07
//
SMILES_INPUT: O=C(N[C@H]1CCC[C@@H]1Nc1nc2ccc(F)cc2s1)c1ncccc1N1CCCCC1
pIC50: 7.38
//
SMILES_INPUT: O=C(N[C@H]1CCC[C@@H]1Nc1nc2ccc(F)cc2s1)c1ncccc1N1CCC1
pIC50: 7.16

---

- TGT: human orexin receptor 2 (Homo sapiens (Human))
- Sequence (O43614 whole entry): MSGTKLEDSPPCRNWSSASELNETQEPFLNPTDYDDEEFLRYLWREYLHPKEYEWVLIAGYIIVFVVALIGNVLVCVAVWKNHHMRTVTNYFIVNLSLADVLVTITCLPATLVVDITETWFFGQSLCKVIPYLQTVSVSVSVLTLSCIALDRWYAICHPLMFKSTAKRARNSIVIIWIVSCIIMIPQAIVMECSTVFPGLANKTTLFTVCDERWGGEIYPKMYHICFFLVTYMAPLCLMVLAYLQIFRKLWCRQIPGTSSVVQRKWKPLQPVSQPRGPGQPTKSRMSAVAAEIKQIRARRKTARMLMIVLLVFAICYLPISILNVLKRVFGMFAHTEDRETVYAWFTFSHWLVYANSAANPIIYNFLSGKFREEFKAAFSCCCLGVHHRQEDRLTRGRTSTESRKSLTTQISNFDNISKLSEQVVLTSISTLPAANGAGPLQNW
- PROTOCOL_SUMMARY: Orexin antagonist activity, intracellular calcium FLIPR assay (orexin receptor 2)
- RUN_CONDITIONS: RBL-2H3 cells stably expressing human orexin receptor 2; orexin-A at approx. 80% maximal response; 15 min preincubation; read-out: Human Orexin2R IC50
Recorded measurements of IC50, one per entry
QUANTITY_NAME: IC50

COMPOUND: CCOc1cccnc1C(=O)N[C@H]1CCC[C@@H]1Nc1nc2ccc(F)cc2s1
MEASURED_RESULT: 8.8 µM
--
COMPOUND: CCOc1ccc(C)nc1C(=O)NC1CCCC1Cc1ccc2ccccc2n1 (stereo not drawn)
MEASURED_RESULT: 6 µM
--
COMPOUND: COc1ccc(C)nc1C(=O)N[C@H]1CCC[C@@H]1Nc1nc2ccc(F)cc2s1
MEASURED_RESULT: > 10 µM
--
COMPOUND: CC(C)Oc1cccnc1C(=O)N[C@H]1CCC[C@@H]1Nc1nc2ccc(F)cc2s1
MEASURED_RESULT: 3.3 µM
--
COMPOUND: O=C(N[C@H]1CCC[C@@H]1Nc1nc2ccc(F)cc2s1)c1ncccc1N1CCC1
MEASURED_RESULT: > 10 µM
--
COMPOUND: COc1ccc(C(F)(F)F)nc1C(=O)N[C@H]1CCC[C@@H]1Nc1nc2ccc(F)cc2s1
MEASURED_RESULT: 9.6 µM
--
COMPOUND: O=C(N[C@H]1CCC[C@@H]1Nc1nc2ccc(Cl)cc2s1)c1ncccc1OC(F)F
MEASURED_RESULT: > 10 µM
--
COMPOUND: O=C(N[C@H]1CCC[C@@H]1Nc1nc2ccc(F)cc2s1)c1ncccc1OC(F)(F)F
MEASURED_RESULT: 3.6 µM
--
COMPOUND: O=C(N[C@H]1CCC[C@@H]1Nc1nc2ccc(F)cc2o1)c1ncccc1OC(F)F
MEASURED_RESULT: > 10 µM
--
COMPOUND: COC1CN(c2cccnc2C(=O)N[C@H]2CCC[C@@H]2Nc2nc3ccc(F)cc3s2)C1
MEASURED_RESULT: > 10 µM
--
COMPOUND: COc1cccnc1C(=O)N(C)[C@H]1CCC[C@@H]1Nc1nc2ccc(F)cc2s1
MEASURED_RESULT: 2.8 µM
--
COMPOUND: O=C(N[C@H]1CCC[C@@H]1Nc1nc2ccc(F)cc2s1)c1ncccc1-n1ccnn1
MEASURED_RESULT: > 10 µM

Reference source for all entries: patent US9790220B2
